Overview of reported koff across a group of binders:
# MEASURED_TARGET: T1, biotinylated CRH (human and mouse, not fully specified; biotinylated, position not stated)
# T1 construct: also called Biotin-CRH; biotin-labeled CRH
# T1 peptide: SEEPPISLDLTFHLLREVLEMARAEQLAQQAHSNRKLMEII
# EXPERIMENT_NOTES: Octet BLI, biotinylated CRH on SA sensor

BINDER	READOUT_QUALIFIER	koff, s⁻¹
PR302341-28 (antibody, human IgG1, kappa, V domains shown, Humanized, PTM-removed variant of PR302341) VH: QVQLVQSGAEVKKPGASVKVSCKASGYTFTDYFMKWVRQAPGQGLEWMGVINPNQGDIFYNQKFKGRVTMTVDKSISTAYMELSRLRSDDTAVYYCARGTDRALFAYWGQGTLVTVSS VL: DVVMTQSPLSLPVTLGQPASISCRSGQSIVHSDGNTYLEWYQQRPGQSPRLLIYKVSNRFSGVPDRFSGSGSGTDFTLKISRVEAEDLGVYYCFQGSHIPWTFGGGTKVEIKR	<	1e-07
PR302334-24 (antibody, human IgG1, kappa, V domains shown, Humanized variant of PR302334) VH: EVQLVESGGGLVKPGGSLRLSCAASGFTFSTYAMSWVRQAPGKGLEWVASIRSGGTTYYPDSVKGRFTISRDNAKNSLYLQMNSLRAEDTAVYYCTRGIDWGQGTTVTVSS VL: DIVMTQSPDSLAVSLGERATINCKASQSVNNDVAWYQQKPGQPPRLLIYYASNRYTGVPDRFSGSGSGTDFTLTISSLQAEDLAVYFCQQDYSSWTFGGGTKVEIKR	<	1e-07
PR006149 (antibody, human IgG1, kappa, V domains shown, PTM-removal variant of PR004290) VH: EVQLVESGGVLVQPGGSLRLSCAASGFTFSSYWMTWVRQAPGKGLEWVANIKQDASEKYYVDSVKGRFTISRDNAKNSLFLQMNSLRAEDTAVYYCARTLIFDYWGQGTLVTVSS VL: DIVMTQSPLSLPVTPGEPASISCRSSQSLLHSTGYSSLEWYLQKPGQSPQLLIYLGSNRASGVPDRFSGSGSGTDFTLKISRVEAEDVGIYYCMQTLQTPITFGQGTRLEIKR	=	7.78e-05
PR302334-25 (antibody, human IgG1, kappa, V domains shown, Humanized variant of PR302334) VH: EVQLVESGGGLVKPGGSLRLSCAASGFTFSTYAMSWVRQAPGKGLEWVASIRSGGTTYYPDSVKGRFTISRDNAKNSLYLQMNSLRAEDTAVYYCTRGIDWGQGTTVTVSS VL: DIQMTQSSLSASVSLGDRVTITCKASQSVNNDVAWYQQKPGKAPRLLIYYASNRYTGVPSRFSGSGSGTDFTFTISSLQPEDLATYFCQQDYSSWTFGGGTKVEIKR	<	1e-07
PR006145 (antibody, human IgG1, kappa, V domains shown, PTM-removal variant of PR004290) VH: EVQLVESGGVLVQPGGSLRLSCAASGFTFSSYWMTWVRQAPGKGLEWVANIKQEGSEKYYVDSVKGRFTISRDNAKNSLFLQMNSLRAEDTAVYYCARTLIFDYWGQGTLVTVSS VL: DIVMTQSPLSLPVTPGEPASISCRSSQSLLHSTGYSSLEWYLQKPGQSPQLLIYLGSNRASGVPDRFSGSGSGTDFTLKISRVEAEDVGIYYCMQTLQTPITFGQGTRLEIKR	=	6.75e-05
